Molecular target: T1, human pIgR extracellular domain (ECD) (human, UniProt P01833 19-638)
T1 construct: also called hpIgR ECD
T1 sequence (P01833 other isoform, or with tags, fused parts or gaps): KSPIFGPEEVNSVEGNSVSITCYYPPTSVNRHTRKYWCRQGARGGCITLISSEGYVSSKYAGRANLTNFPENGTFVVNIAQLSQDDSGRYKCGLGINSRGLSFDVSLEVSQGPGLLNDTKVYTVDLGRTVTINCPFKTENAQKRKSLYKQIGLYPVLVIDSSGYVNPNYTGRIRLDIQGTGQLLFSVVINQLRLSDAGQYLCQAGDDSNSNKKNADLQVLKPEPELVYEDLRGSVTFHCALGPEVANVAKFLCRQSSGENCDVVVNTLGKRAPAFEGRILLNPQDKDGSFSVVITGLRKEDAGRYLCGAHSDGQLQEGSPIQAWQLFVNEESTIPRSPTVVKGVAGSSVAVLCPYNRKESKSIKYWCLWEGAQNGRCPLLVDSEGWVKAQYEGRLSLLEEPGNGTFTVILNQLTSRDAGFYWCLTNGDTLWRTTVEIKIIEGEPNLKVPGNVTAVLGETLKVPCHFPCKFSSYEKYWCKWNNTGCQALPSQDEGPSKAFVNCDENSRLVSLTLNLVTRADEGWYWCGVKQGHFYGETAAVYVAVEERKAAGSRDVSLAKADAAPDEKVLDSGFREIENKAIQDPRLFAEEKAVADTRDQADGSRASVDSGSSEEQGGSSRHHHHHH
Assay: ECL (MSD), hpIgR-ECD coated, anti-VHH detection
Listed below: EC50 values for each entry.
Use nM as the unit, but write only the number.

Example binders with recorded EC50:
I am curious: what EC50 value has been reported for VHH2-linker-mono-Fc protein (Fc fusion, also called VHH2-mono-Fc; mpIgR_338) EVQVVESGGGLVQAGGSLKLACAAPGLTFSSYRMGWFRQAPGQEREFVAAIDWNGRGTYYRYYADSVKGRSTISRDNAKNTVYLQMNSLKPEDTAVYYCAATTVLTDPRVLNEYATWGQGTQVTVSSEPKTPKPQPQPQLQPQPNPTTESKSPKSPAPELLGGPSVFLFPPKPKDTLMISRTPEVTCVVVDVSHEDPEVKFNWYVDGVEVHNAKTKPREEQYNSTYRVVSVLTVLHQDWLNGKEYKCKVSNKALPAPIEKTISKAKGQPREPQVYTKPPSREEMTKNQVSLSCLVKGFYPSDIAVEWESNGQPENNYKTTVPVLDSDGSFRLASYLTVDKSRWQQGNVFSCSVMHEALHNHYTQKSLSLSPGK ? 4

I am curious: what EC50 value has been reported for VHH12-linker-mono-Fc protein (Fc fusion, made in CHO cells; also called VHH12-mono-Fc; hpIgR_266) QVQLVETGGGLVQAGDSLRLSCAASGRTLSFNTYAMGWFRQAPGKEREFVASITWNGGSTSYADSVKGRFTITRDNAKNTATLRMNSLQPDDTAVYYCAAARYYVSGTYFPANYWGQGTQVTVSSEPKTPKPQPQPQLQPQPNPTTESKSPKSPAPELLGGPSVFLFPPKPKDTLMISRTPEVTCVVVDVSHEDPEVKFNWYVDGVEVHNAKTKPREEQYNSTYRVVSVLTVLHQDWLNGKEYKCKVSNKALPAPIEKTISKAKGQPREPQVYTKPPSREEMTKNQVSLSCLVKGFYPSDIAVEWESNGQPENNYKTTVPVLDSDGSFRLASYLTVDKSRWQQGNVFSCSVMHEALHNHYTQKSLSLSPGK ? 0.2

I am curious: what EC50 value has been reported for VHH11-linker-mono-Fc protein (Fc fusion, made in CHO cells; also called VHH11-mono-Fc; hpIgR_250) EVQVVESGGGLVQAGGSLRLSCAASGRTFTTYRMGWFRQAPGKEREFVAAIRWSGGRTLYADSVKGRFTISRDNAKNTAYLQMNNLRPEDTAVYYCAADLAEYSGTYSSPADSPAGYDYWGQGTQVTVSSEPKTPKPQPQPQLQPQPNPTTESKSPKSPAPELLGGPSVFLFPPKPKDTLMISRTPEVTCVVVDVSHEDPEVKFNWYVDGVEVHNAKTKPREEQYNSTYRVVSVLTVLHQDWLNGKEYKCKVSNKALPAPIEKTISKAKGQPREPQVYTKPPSREEMTKNQVSLSCLVKGFYPSDIAVEWESNGQPENNYKTTVPVLDSDGSFRLASYLTVDKSRWQQGNVFSCSVMHEALHNHYTQKSLSLSPGK ? 0.8

New cases:
I am curious: what EC50 value has been reported for VHH10-linker-mono-Fc protein (Fc fusion, made in CHO cells; also called VHH10-mono-Fc; hpIgR_225) EVQVVESGGGLVQAGGSLRLSCAASGFTFTRYAMGWFRQAPGKERSFVAAISWSGSSAGYGDSVKGRFTISRDNAKNTLYLQMNSLKPEDTAVYYCAADPFNQGYWGQGTQVTVSSEPKTPKPQPQPQLQPQPNPTTESKSPKSPAPELLGGPSVFLFPPKPKDTLMISRTPEVTCVVVDVSHEDPEVKFNWYVDGVEVHNAKTKPREEQYNSTYRVVSVLTVLHQDWLNGKEYKCKVSNKALPAPIEKTISKAKGQPREPQVYTKPPSREEMTKNQVSLSCLVKGFYPSDIAVEWESNGQPENNYKTTVPVLDSDGSFRLASYLTVDKSRWQQGNVFSCSVMHEALHNHYTQKSLSLSPGK ? 43.9

FYI, the data here is from patent US20220324970A1.
